Tested on: NF-kB reporter in Jurkat cells
Assay notes: NF-kB reporter assay in Jurkat cells stimulated with aCD3/aCD28/PMA
Assay type: cell-based
Assay conditions: Homo sapiens; Jurkat cells, 1 hr compound pre-incubation, aCD3/aCD28/PMA stimulation 4 hr, One-Glo readout; read-out: NF-kB Reporter Assay IC50
pIC50: −log10 of the molar value.
Property: pIC50; scope: individual compounds

Compound | Measured target | pIC50
COc1ccc2cnn(C)c2c1N(C)S(=O)(=O)c1cnn(-c2ccnc(C(F)(F)F)c2)c1 | NF-kB reporter in Jurkat cells | > 6.40
Cn1ncc2cccc(NS(=O)(=O)c3cnn(-c4cc(C5(C#N)COC5)ccn4)c3)c21 | NF-kB reporter in Jurkat cells | > 6.40
[2H]C([2H])([2H])n1nc(F)c2cccc(NS(=O)(=O)c3cnn(-c4cc(C(F)(F)F)ccn4)c3)c21 | NF-kB reporter in Jurkat cells | > 6.40
COc1ccc2cnn(C)c2c1NS(=O)(=O)c1cnn(-c2cc(N3CCCCC3)ccn2)c1 | NF-kB reporter in Jurkat cells | > 6.40
COc1ccc2[nH]nc(C)c2c1N(C)S(=O)(=O)c1cnn(-c2ccnc(C(F)(F)F)c2)c1 | NF-kB reporter in Jurkat cells | 5.60 to 6.00
COc1ccc2cnn(C)c2c1NS(=O)(=O)c1cnn(-c2cc(N3CC[C@@H](F)C3)ccn2)c1 | NF-kB reporter in Jurkat cells | > 6.40
COc1ccc2[nH]nc(C)c2c1NS(=O)(=O)c1cnn(-c2ccnc(C(F)(F)F)c2)c1 | NF-kB reporter in Jurkat cells | > 6.40
COC1(c2ccnc(-n3cc(S(=O)(=O)Nc4cccc5cnn(C)c45)cn3)c2)CCOCC1 | NF-kB reporter in Jurkat cells | > 6.40
CN1C(=O)N(c2ccnc(-n3cc(S(=O)(=O)Nc4cccc5cnn(C)c45)cn3)c2)CC1(C)C | NF-kB reporter in Jurkat cells | > 6.40
COC(C)c1ccnc(-n2cc(S(=O)(=O)Nc3cccc4cnn(C)c34)cn2)c1 (stereo not drawn) | NF-kB reporter in Jurkat cells | > 6.40
Cn1ncc2cccc(NS(=O)(=O)c3cnn(-c4cc(C5(O)CCOC5)ccn4)c3)c21 (stereo not drawn) [Compound I-128] | NF-kB reporter in Jurkat cells | > 6.40
Cn1ncc2cncc(NS(=O)(=O)c3cnn(-c4cc(C(C)(F)F)ccn4)c3)c21 | NF-kB reporter in Jurkat cells | < 5.60
COc1ccc2cnn(C)c2c1NS(=O)(=O)c1cnn(-c2ccnc(C(F)(F)F)c2)c1 | NF-kB reporter in Jurkat cells | > 6.40
C=C(CO)c1ccnc(-n2cc(S(=O)(=O)Nc3c(OC)ccc4cnn(C)c34)cn2)c1 | NF-kB reporter in Jurkat cells | > 6.40
COc1ccc2cnn(C)c2c1NS(=O)(=O)c1cnn(-c2cc(N3CCC4(CC4)C3)ccn2)c1 | NF-kB reporter in Jurkat cells | > 6.40
COc1ccc2cnn(C)c2c1NS(=O)(=O)c1cnn(-c2cc(N3CC[C@@H](C)C3)ccn2)c1 | NF-kB reporter in Jurkat cells | > 6.40
COc1ncc2cnn(C)c2c1NS(=O)(=O)c1cnn(-c2cc(N3CC[C@@H](C)C3)ccn2)c1 | NF-kB reporter in Jurkat cells | > 6.40
CN(C)c1ccnc(-n2cc(S(=O)(=O)Nc3cccc4cnn(C)c34)cn2)c1 | NF-kB reporter in Jurkat cells | > 6.40
Cn1ncc2cccc(NS(=O)(=O)c3cnn(-c4cc(N5CCCCCC5)ccn4)c3)c21 | NF-kB reporter in Jurkat cells | > 6.40
CC1CCN(c2ccnc(-n3cc(S(=O)(=O)Nc4cccc5cnn(C)c45)cn3)c2)CC1 | NF-kB reporter in Jurkat cells | > 6.40
CCc1ccc2[nH]nc(C)c2c1N(C)S(=O)(=O)c1cnn(-c2ccnc(C(F)(F)F)c2)c1 | NF-kB reporter in Jurkat cells | 6.00 to 6.40
COc1ncc2cnn(C)c2c1NS(=O)(=O)c1cnn(-c2cc(N3CC4(CC4)C3)ccn2)c1 | NF-kB reporter in Jurkat cells | > 6.40
Cn1ncc2cccc(NS(=O)(=O)c3cnn(-c4cc(N5CC(C(N)=O)C5)ccn4)c3)c21 | NF-kB reporter in Jurkat cells | < 5.60
CCc1ccc2cnn(C)c2c1NS(=O)(=O)c1cnn(-c2cc(C(C)(C)O)ccn2)c1 | NF-kB reporter in Jurkat cells | > 6.40
COc1ccc2[nH]nc(C)c2c1NS(=O)(=O)c1cnn(-c2cc(C(F)(F)F)ccn2)c1 | NF-kB reporter in Jurkat cells | > 6.40
CCc1ccc2cnn(C)c2c1NS(=O)(=O)c1cnn(-c2cc(OC(F)(F)F)ccn2)c1 | NF-kB reporter in Jurkat cells | < 5.60
CCc1ccc2[nH]nc(C)c2c1NS(=O)(=O)c1cnn(-c2ccnc(C(F)(F)F)c2)c1 | NF-kB reporter in Jurkat cells | > 6.40
Cn1ncc2ccc(OC3CC3)c(NS(=O)(=O)c3cnn(-c4ccnc(C(F)(F)F)c4)c3)c21 | NF-kB reporter in Jurkat cells | 5.60 to 6.00
Cn1nc(Cl)c2cccc(NS(=O)(=O)c3cnn(-c4cc(C(F)(F)F)ccn4)c3)c21 | NF-kB reporter in Jurkat cells | > 6.40
COc1ccc2cnn(C)c2c1NS(=O)(=O)c1cnn(-c2cc(N3CC(C)(F)C3)ccn2)c1 | NF-kB reporter in Jurkat cells | > 6.40
